Assay: in vivo
Details: male, CD-1, mouse, ip
Measured TD50 values are reported for all entries that follow.
Just the number in mg/kg, nothing appended.

// TD50 lookup, compound = CN(C)C1CC(=O)N(C(C(=O)N2CCN(c3cccc(C(F)(F)F)c3)CC2)c2ccccc2)C1=O.Cl (stereo not shown) , result: 169

// TD50 lookup, compound = CN(C)C1CC(=O)N([C@@H](C(=O)N2CCN(c3cccc(OC(F)(F)F)c3)CC2)c2ccccc2)C1=O.Cl (stereo partly shown) , result: 72

// TD50 lookup, compound = CN(C)C1CC(=O)N([C@H](C(=O)N2CCN(c3cccc(C(F)(F)F)c3)CC2)c2ccccc2)C1=O.Cl (stereo partly shown) , result: 188

// TD50 lookup, compound = CN(C)C1CC(=O)N([C@@H](C(=O)N2CCN(c3cccc(C(F)(F)F)c3)CC2)c2ccccc2)C1=O.Cl (stereo partly shown) , result: 94.9

// TD50 lookup, compound = CCN(CC)C1CC(=O)N(C(C(=O)N2CCN(c3cccc(C(F)(F)F)c3)CC2)c2ccccc2)C1=O.Cl (stereo not shown) , result: 247

// TD50 lookup, compound = CN(C)C1CC(=O)N(C(C(=O)N2CCN(c3cccc(OC(F)(F)F)c3)CC2)c2ccccc2)C1=O.Cl (stereo not shown) , result: 69.7
